- System: MS2 coat protein
- assay-summary: apparent KD of MS2 coat protein; designed switch direction (-1 OFF switch, 1 ON switch): -1; higher = weaker reporter binding
- run-conditions: input ligand: FMN 200 uM
Would you mind labelling by apparent KD of MS2 coat protein? At or over 40 nM is Yes, under is No.

The following sequences have reported results that may help.
INSERT INTO results (residue_codes, class_label) VALUES
  ('UAGGAGAGAGUGAGGAUAUCCGGAAGAGAGGAUCAGGAGAAGGCACAUGAGGAUCACCCAUGUAAAAGAGGGAA [I think I solved risk of not working] (Eterna round: R97, puzzle: Brourd''s mod of Exclusion 4)', 'Yes'),
  ('GGCAGUCGAGGAUAUACAAUCGUGCUUCGGCACGUAAGAUCACAUGAGGAUCACCCAUGUAGAAGGCGACUGCC [E2/1-A1] (Eterna round: R97, puzzle: Exclusion 2)', 'Yes'),
  ('CUAGAUCUUCGGAUCUAGUACAUGAGGAUCACCCAUGUGACGAGUAGAUCCUCAAACAAGCUUUUUGCUCGUCUUAU [Sensor v3 - Turn-off variant 1 - 20] (Eterna round: R96, puzzle: Sensor v3, turn-off variant 1)', 'Yes'),
  ('ACUCAGUCAGGAUAUCAAUCCGCCUGUGAUACGCAGGCGGCUGAGAAGGGACAUGAGGAUCACCCAUGUAAAGA [jl-ex4-4.18 ViennaUCT mod] (Eterna round: R97, puzzle: Exclusion 4)', 'Yes'),
  ('GGUCGAAGUGUGAGGAUAUGCUGGUCCUUGGAUCAGCAGAAGGCACAUGAGGAUCACCCAUGUGGUAAACGACC [Mat - Exclusion 4 - Eli Mod - D34] (Eterna round: R97, puzzle: Brourd''s mod of Exclusion 4)', 'Yes');

Does GUCUGCACGCUGCGGUCCUACAUGAGGAUCACCCAUGUGGUCUGGUGGCGUGGGUCGCCGGACUUGGCUCGUCUUGA [salish99_S_TOV1_R5_045] (Eterna round: R97, puzzle: Sensor, turn-off variant 1) have a reported apparent KD of MS2 coat protein of at least 40 nM?
No

Given the entry GUUAACGUAGGAUAUUAGUACAUGAACAUGAGGAUCACCCAUGUGAGGUGGGUCUAAGAAUAAGAAGGGCGAAGAA [EX5 #26] (Eterna round: R97, puzzle: Exclusion 5) , answer whether its apparent KD of MS2 coat protein meets or surpasses 40 nM.
Yes

Reported apparent KD of MS2 coat protein reaches at least 40 nM for GGAAGAGAGUUAGGAUAUAUAAGAAGAAUGUGGGUAGAAGGAACGAAACAUGAGGAUCACCCAUGUCCCAUGUUGAGGAGGAGG (Eterna round: R96, puzzle: Exclusion NG 1) ?
Yes

Exam item: decide whether the reported apparent KD of MS2 coat protein for GUGUCACAUGAGGAUCACCCAUGUGAGGAUAUCAUGCUUCGUAGUAAACUACGAAGUGUGAGAAGGCACAUGAC [Omei Ex1 E1] (Eterna round: R97, puzzle: Exclusion 1) is at least 40 nM.
Yes

Is apparent KD of MS2 coat protein at least 40 nM? Consider CCUCCGGCAGGAUAUGCAGGGAGGAUGUUGUGUUAUUGGUAACAUGAGGAUCACCCAUGUAGAAGGGCCAAUAC [Eternabot (L2) Solution 42] (Eterna round: R97, puzzle: Exclusion 2)
No

Has GCUUGGCGAGGAUAUACAUGAGGAUCACCCAUGUGAGAGAAUAAAGUGAGGAAGAAAAGUAGAAGGCGCUGAGG [Mat - Exclusion 3 - Mod of Salish D58] (Eterna round: R96, puzzle: Exclusion 3) a recorded apparent KD of MS2 coat protein greater than or equal to 40 nM?
Yes

Hi team, for GCUCUCUCUCUGUCUCUCUACAUGAGGAUCACCCAUGUGUCUCGCUCGCUCUCUCUCUCUCUUUCUCUCUCUCUCUU [Default title] (Eterna round: R97, puzzle: Sensor, turn-off variant 1) , is the recorded apparent KD of MS2 coat protein at or above 40 nM?
Yes

Would you say GCGUUCUGAGGAUAUACAUGAGGAUCACCCAUGUUGAGAAGAAAGUAUAAAAGAUUGUGUAGAAGGCAGAGUGC [JR_Ex3_Sub070] (Eterna round: R97, puzzle: Exclusion 3) shows apparent KD of MS2 coat protein at minimum 40 nM?
Yes

Say whether ACAUGAGGAUCACCCAUGUCAGGCGGGUCCACUCCGGCUGUUGAGGAUAUAGCCCGGUAUCCGCGCUAGAAGGUGAGGGCCGGC [Aenatbe mod 25] (Eterna round: R96, puzzle: Exclusion NG 3) shows apparent KD of MS2 coat protein of 40 nM or more.
No

Confirm if apparent KD of MS2 coat protein reported for the sequence AAAUAGAAUGAGGAUAUCGUAUUGUAUUUAGUGCGAGAAGGCAUUACAUGAGGAUCACCCAUGUUUUGUUGGGA [JR_Ex6_Sub003] (Eterna round: R97, puzzle: Exclusion 6) is 40 nM or above.
Yes

Identify whether the reported apparent KD of MS2 coat protein of the following sequence is 40 nM or greater: GCACCACGAGGAUAUACAUGAGGAUCACCCAUGUGAUCAGCAGUCCUCGGACUGCAAUGUAGAAGGCGUGGUGC [E3/1-A1] (Eterna round: R97, puzzle: Exclusion 3)
No

Check if apparent KD of MS2 coat protein >= 40 nM (inclusive). Item: AACCUACAUGAGGAUCACCCAUGUGAGGAUAUAUUGUUAUUUAUAAUAUUUUUUAGUGGUAGAAGGCGCGUGAU [JR_Exc1_Sub019] (Eterna round: R97, puzzle: Exclusion 1)
No
